Molecular target: Beta-secretase 1 (Homo sapiens)
Sequence (P56817 whole entry): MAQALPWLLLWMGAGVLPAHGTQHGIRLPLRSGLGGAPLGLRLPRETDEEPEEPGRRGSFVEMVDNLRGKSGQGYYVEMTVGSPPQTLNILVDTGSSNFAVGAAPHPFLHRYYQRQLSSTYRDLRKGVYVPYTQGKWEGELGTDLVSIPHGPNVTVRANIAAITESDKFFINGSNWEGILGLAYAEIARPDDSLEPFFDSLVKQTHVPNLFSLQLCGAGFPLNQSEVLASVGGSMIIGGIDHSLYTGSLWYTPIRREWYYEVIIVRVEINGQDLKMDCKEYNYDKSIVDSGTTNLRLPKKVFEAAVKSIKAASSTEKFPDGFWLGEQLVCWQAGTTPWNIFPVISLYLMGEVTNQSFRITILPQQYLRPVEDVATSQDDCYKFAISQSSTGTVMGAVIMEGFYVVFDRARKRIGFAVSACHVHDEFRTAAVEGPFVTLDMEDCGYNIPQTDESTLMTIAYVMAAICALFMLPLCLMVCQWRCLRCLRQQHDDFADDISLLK
Assay: Inhibition of BACE-1 in human SH-SY5Y cells transfected with human APP695 measured after 24 hrs by ELISA
Format: cell-based

{"compound": "CC1c2cc(Oc3ccccc3)ccc2N=C(N)N1CCCC(=O)N(Cc1ccnn1C)C1CCCCC1 (stereo unspecified)", "unit string": "µM", "IC50": 0.14}

###

Assay: Elimination half life in male Wistar rat at 20 mg/kg, po measured upto 32 hrs by high-performance liquid chromatography
Format: ADME, organism-based
Conditions: in vivo, read-out: beta t1/2 (converted)
measured parameter: half-life (h)

{"smiles data": "COc1cc2ncnc(N3CCN(Cc4ccccc4)CC3)c2cc1OC", "unit string": "h", "observed result": 3.11}

###

Test: in vitro
Details: PAMPA

{"smiles data": "COc1cc2ncnc(N3CCN(C(c4ccccc4)c4ccccc4)CC3)c2cc1OC", "unit string": "×10⁻⁶ cm/s", "Papp at 18 h, 25 ug/ml": 6.28}
{"smiles data": "COc1cc2ncnc(N3CCN(Cc4ccccc4)CC3)c2cc1OC", "unit string": "×10⁻⁶ cm/s", "Papp at 18 h, 25 ug/ml": 6.03}
{"smiles data": "COc1cc2ncnc(N3CCN(c4ccc([N+](=O)[O-])cc4)CC3)c2cc1OC", "unit string": "×10⁻⁶ cm/s", "Papp at 18 h, 25 ug/ml": 4.81}

###

Biological target: Cholinesterase (Homo sapiens)
Sequence (P06276 whole entry): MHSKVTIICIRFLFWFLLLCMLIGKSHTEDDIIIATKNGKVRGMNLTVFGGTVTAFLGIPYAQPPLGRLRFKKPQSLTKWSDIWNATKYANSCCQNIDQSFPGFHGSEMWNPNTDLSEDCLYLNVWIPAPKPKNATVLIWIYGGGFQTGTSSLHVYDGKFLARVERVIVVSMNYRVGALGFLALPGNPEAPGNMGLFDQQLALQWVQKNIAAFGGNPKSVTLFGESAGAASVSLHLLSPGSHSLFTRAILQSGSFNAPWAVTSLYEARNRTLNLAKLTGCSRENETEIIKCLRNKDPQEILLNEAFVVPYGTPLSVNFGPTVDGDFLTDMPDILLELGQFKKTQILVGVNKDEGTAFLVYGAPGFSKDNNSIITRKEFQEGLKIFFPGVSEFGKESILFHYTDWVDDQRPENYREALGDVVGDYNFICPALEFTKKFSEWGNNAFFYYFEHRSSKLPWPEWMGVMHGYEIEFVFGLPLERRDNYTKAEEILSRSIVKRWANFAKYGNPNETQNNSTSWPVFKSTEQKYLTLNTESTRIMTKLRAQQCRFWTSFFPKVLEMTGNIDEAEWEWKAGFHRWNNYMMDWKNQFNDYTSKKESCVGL
Experiment: Inhibition of human BChE

{"smiles data": "c1ccc(CN2CCN(c3nc(-c4ccccc4)nc4ccccc34)CC2)cc1", "IC50": "> 10 µM"}

###

Some molecules, each annotated with its measured pIC50.
Target: Beta-secretase 1 (Homo sapiens)
Assay: Inhibition of human BACE-1 measured after 2 hrs by FRET assay
pIC50: −log10 of the molar value.

{"smiles data": "COc1cc2ncnc(N3CCN(c4ccc(C)cc4)CC3)c2cc1OC", "pIC50": 5.73}
{"smiles data": "COc1cc2ncnc(N3CCN(Cc4ccc(Cl)cc4)CC3)c2cc1OC", "pIC50": 5.78}
{"smiles data": "COc1cc2ncnc(N3CCN(C(C)=O)CC3)c2cc1OC", "pIC50": 5.44}
{"smiles data": "COc1cc2ncnc(N3CCN(c4ccccn4)CC3)c2cc1OC", "pIC50": 5.81}
{"smiles data": "COc1cc2ncnc(N3CCN(c4ccc([N+](=O)[O-])cc4)CC3)c2cc1OC", "pIC50": 6.14}
{"smiles data": "COc1cc2ncnc(N3CCN(C(c4ccccc4)c4ccccc4)CC3)c2cc1OC", "pIC50": 6.18}
{"smiles data": "COc1cc2ncnc(N3CCN(c4ccccc4)CC3)c2cc1OC", "pIC50": 5.88}
{"smiles data": "COc1cc2ncnc(N3CCN(c4ccc(F)cc4)CC3)c2cc1OC", "pIC50": 5.83}
{"smiles data": "COc1cc2ncnc(N3CCN(Cc4ccc(F)cc4)CC3)c2cc1OC", "pIC50": 5.53}
{"smiles data": "COc1cc2ncnc(N3CCN(c4ccccc4[N+](=O)[O-])CC3)c2cc1OC", "pIC50": 5.74}
{"smiles data": "COc1cc2ncnc(N3CCN(Cc4ccccc4)CC3)c2cc1OC", "pIC50": 6.64}
{"smiles data": "COc1cc2ncnc(N3CCN(c4ccc(Br)cc4)CC3)c2cc1OC", "pIC50": 5.77}
{"smiles data": "COc1cc2ncnc(N3CCN(C)CC3)c2cc1OC", "pIC50": 5.48}
{"smiles data": "COc1cc2ncnc(N3CCN(Cc4ccc(C)cc4)CC3)c2cc1OC", "pIC50": 5.84}

Measured values drawn from ChEMBL document CHEMBL5500373 for this set.
